System: Jurkat cells
TEST_DESCRIPTION: Staurosporine induced apoptosis in Jurkat cells, Annexin V
Type: cell-based
COND: Human Jurkat cell line/Annexin V, n = 4, read-out: IC50, inhibition of apoptosis
ENDPOINT_NAME: IC50

I'd like to know its IC50. The molecule in question is CCC(C(=O)NC(CC(=O)O)C(=O)COc1c(F)c(F)cc(F)c1F)n1cccc(NC(=O)OC)c1=O (stereo not shown) [VX-166]
255 nM

---

Tested on: IL-1β release from peripheral blood mononuclear cells
TEST_DESCRIPTION: IL-1β release from LPS-treated PBMC
Assay type: cell-based
COND: LPS-treated human PBMC, 18 hours, n = 4; read-out: IC50 ± SD, inhibition of IL-1β release
ENDPOINT_NAME: IC50 (nM)
Please respond with the number in nM and leave the unit unwritten.

I'd like to know its IC50. The compound in question is CCC(C(=O)NC(CC(=O)O)C(=O)COc1c(F)c(F)cc(F)c1F)n1cccc(NC(=O)OC)c1=O (stereo not shown) [VX-166]
260

---

System: Jurkat cells
TEST_DESCRIPTION: Anti-Fas induced apoptosis in Jurkat cells, DNA fragmentation (Cell Death Detection ELISA)
Format: cell-based
COND: Human Jurkat cell line/DNA fragmentation, n = 4, read-out: IC50, inhibition of apoptosis
ENDPOINT_NAME: IC50 (nM)
Please respond with the number in nM and leave the unit unwritten.

Form field: IC50 recorded for CCC(C(=O)NC(CC(=O)O)C(=O)COc1c(F)c(F)cc(F)c1F)n1cccc(NC(=O)OC)c1=O (stereo not shown) with Jurkat cells (enter value)
45
